B1: HDV Ribozyme (parent)
chain: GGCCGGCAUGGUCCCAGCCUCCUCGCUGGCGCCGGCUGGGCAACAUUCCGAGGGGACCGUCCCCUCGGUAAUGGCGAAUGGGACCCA

Variants of: B1
Experiment: self-cleavage, relative activity (ratio to wild type); higher = more cleavage; co-transcriptional
Ranges used to classify self-cleavage: c1: < 0.2; c2: ≥ 0.2 and < 0.7; c3: ≥ 0.7

Sort into band: G54A C86A
c3

Input C21U U69C
c1

Input C58U C62A
c3

Input U20C A83U
c1

Input G31A A70C
c2

Input A70G A77U
c2

Input A8C G11C
c1

Input "C41U"
c3

Input "A56U"
c3

Input C58A U60G
c3

Input C63U U79C
c2

Input C41A C58A
c3

Input G10A C19G
c1

Input C64A U79C
c2

Input G1C C75U
c2

Input G6A G67A
c3

Input G40C G55A
c1

Input G40U G82A
c2

Input G28C A56U
c1

Input U20C U60C
c1

Input A8G C63A
c3

Input G52U U72G
c2

Input C22U A56U
c3

Input G17C C32A
c1

Input C4U C41U
c2

Input U20C A45G
c1

Input U47G C75G
c2

Input A70U G74C
c2

Input C21G G50C
c1

Input G76C A78C
c1

Input G39A A87U
c2

Input C15G G38C
c1

Input U12C G55U
c2

Input C3U G67C
c3

Input G55C U69C
c3

Input A16U U37C
c3

Input A43C A83U
c1

Input U27G G31C
c2

Input A8G G53A
c3

Input C3U C57G
c3

Input C7G G81A
c1

Input C44G U46C
c3

Input A70G G82C
c2
